Biological target: Bcl-xL(ΔC) A142L (Homo sapiens, UniProt Q07817, A142L)
Construct: inferred from Ni-NTA purification and the pET22b(+) NdeI/XhoI cloning)
Sequence (Q07817 1-211 A142L limits assumed): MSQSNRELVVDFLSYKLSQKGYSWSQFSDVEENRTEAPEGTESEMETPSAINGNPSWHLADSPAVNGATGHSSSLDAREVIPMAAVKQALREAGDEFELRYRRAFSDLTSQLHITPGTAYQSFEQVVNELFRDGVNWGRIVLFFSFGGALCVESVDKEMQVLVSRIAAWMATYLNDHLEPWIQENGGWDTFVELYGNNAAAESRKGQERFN
Test: Fluorescence anisotropy binding
Conditions: AA1 200 nM or FITC-labeled BH3 peptide 25 nM; read-out: Dissociation Constant KD
Parameter: Kd (µM)
Give bare numbers, in µM.

What measured Kd is associated with CCCCCC[C@H]1C(=O)O[C@H](C)[C@H](NC(=O)c2cccc(NC=O)c2O)C(=O)O[C@@H](C)[C@@H]1OC(=O)CC(C)C [antimycin A1] on Bcl-xL(ΔC) A142L (Homo sapiens, UniProt Q07817, A142L)?
41.8

* * *

Task for the reader: assign each of the following molecules its reported amounts remaining after 4 weeks.
Assay: Stability in plasma
Format: in vitro ADME, human
Conditions: -80° C., presence of NaF/EDTA
Write the numeric value and follow it with the unit.

See these solved cases before continuing.
{"columns": ["Molecule", "amounts remaining after 4 weeks"],
 "data": [
  ["CCCCCC[C@H]1C(=O)O[C@H](C)[C@H](NC(=O)c2cccc(NC=O)c2OC)C(=O)O[C@@H](C)[C@@H]1OC(=O)CC(C)C [2-OMeA1, 2-methoxy antimycin A1]", "93%"],
  ["CCCC[C@H]1C(=O)OC(C)[C@H](NC(=O)c2cccc(NC=O)c2OC)C(=O)O[C@@H](C)C1OC(=O)CC(C)C (stereo partly shown) [2-OMeA3, Antimycin A3 methyl ether]", "95%"]
]}

Parameters: items (list). Returns: amounts remaining after 4 weeks for each item.
1. CCCCCC[C@H]1C(=O)O[C@H](C)[C@H](NC(=O)c2cccc(NC=O)c2OC)C(=O)O[C@@H](C)[C@@H]1OC(=O)CCC [2-OMeA2, 2-methoxy antimycin A2]
2. CC[C@H]1C(=O)O[C@H](C)[C@H](NC(=O)c2cccc(NC=O)c2OC)C(=O)O[C@@H](C)[C@@H]1OC(=O)CC(C)C [2-OMeA5, 2-OMe antimycin A5]

1: 83%; 2: 92%

* * *

Tested on: plasma proteins
Test: Binding to plasma proteins (ultrafiltration)
Assay type: in vitro ADME, mouse
Conditions: presence of NaF+EDTA, 1000 ng/ml
Parameter: Protein binding, Mouse (%)
Answers are plain numbers, in %.

{"columns": ["Compound", "Protein binding, Mouse (%)"],
 "data": [
  ["CCCCCC[C@H]1C(=O)O[C@H](C)[C@H](NC(=O)c2cccc(NC=O)c2OC)C(=O)O[C@@H](C)[C@@H]1OC(=O)CC(C)C [2-OMeA1, 2-methoxy antimycin A1]", 99.0],
  ["CCCCCC[C@H]1C(=O)O[C@H](C)[C@H](NC(=O)c2cccc(NC=O)c2OC)C(=O)O[C@@H](C)[C@@H]1OC(=O)CCC [2-OMeA2, 2-methoxy antimycin A2]", 99.7],
  ["CCCC[C@H]1C(=O)OC(C)[C@H](NC(=O)c2cccc(NC=O)c2OC)C(=O)O[C@@H](C)C1OC(=O)CC(C)C (stereo partly shown) [2-OMeA3, Antimycin A3 methyl ether]", 99.1]
]}

Now for another entry.
Would you mind telling me what Protein binding, Mouse value was observed for CC[C@H]1C(=O)O[C@H](C)[C@H](NC(=O)c2cccc(NC=O)c2OC)C(=O)O[C@@H](C)[C@@H]1OC(=O)CC(C)C [2-OMeA5, 2-OMe antimycin A5] ?
99.7

* * *

Target: Bcl-xL(ΔC) E92L (Homo sapiens, UniProt Q07817, E92L)
Construct: inferred from Ni-NTA purification and the pET22b(+) NdeI/XhoI cloning)
Sequence (Q07817 1-211 E92L limits assumed): as the sequence (Q07817 1-211 A142L limits assumed) above, with E92L, L142A counted along it
Assay: Pore-forming activity, calcein release from liposomes
Settings: Bcl-xL(ΔC) 500 nM; read-out: Pore Inhibition IC50
Description: Large unilamellar vesicles composed of 60% dioleoylphophatidylcholine and 40% dioleoylphosphatidylglycerol were prepared by the extrusion method of Mayer et al., supra. Lipid stocks, in chloroform, were mixed and dried under a stream of nitrogen gas. […] Lipid concentration was measured using the ammonium ferrothiocyanate method (Stewart, Anal. Biochem. 104:10-14, 1980). […]
Parameter: pIC50
Answers are plain numbers, as −log10 of the molar value.

Tell me the measured pIC50 of CCCCCC[C@H]1C(=O)O[C@H](C)[C@H](NC(=O)c2cccc(NC=O)c2O)C(=O)O[C@@H](C)[C@@H]1OC(=O)CC(C)C [antimycin A1] , please.
5.61

* * *

Assay: S9 metabolism
Assay type: in vitro ADME, human
Settings: male, human, hepatic S9 fraction, pH 7.4; 2000 ng/ml
Parameter: half-life at 2000 ng/ml

Which half-life at 2000 ng/ml reading was recorded for the compound CCCC[C@H]1C(=O)OC(C)[C@H](NC(=O)c2cccc(NC=O)c2OC)C(=O)O[C@@H](C)C1OC(=O)CC(C)C (stereo partly shown) [2-OMeA3, Antimycin A3 methyl ether] ?
~10 min

* * *

Biological target: Bcl-xL(ΔC) F97W (Homo sapiens, UniProt Q07817, F97W)
Construct: inferred from Ni-NTA purification and the pET22b(+) NdeI/XhoI cloning)
Sequence (Q07817 1-211 F97W limits assumed): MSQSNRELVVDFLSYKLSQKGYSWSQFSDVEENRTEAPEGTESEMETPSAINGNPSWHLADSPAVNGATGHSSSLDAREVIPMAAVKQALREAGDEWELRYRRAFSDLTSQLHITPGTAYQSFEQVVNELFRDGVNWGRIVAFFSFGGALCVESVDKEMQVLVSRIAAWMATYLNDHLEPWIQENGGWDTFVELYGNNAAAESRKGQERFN
Test: Fluorescence anisotropy binding
Conditions: AA1 200 nM or FITC-labeled BH3 peptide 25 nM; read-out: Dissociation Constant KD
Parameter: pKd
Answers are plain numbers, as −log10 of the molar value.

# pKd lookup, item CCCCCC[C@H]1C(=O)O[C@H](C)[C@H](NC(=O)c2cccc(NC=O)c2O)C(=O)O[C@@H](C)[C@@H]1OC(=O)CC(C)C [antimycin A1]
4.76

* * *

Biological target: Bcl-xL(ΔC) A142L (Homo sapiens, UniProt Q07817, A142L)
Construct: inferred from Ni-NTA purification and the pET22b(+) NdeI/XhoI cloning)
Test: Pore-forming activity, calcein release from liposomes
Details: Bcl-xL(ΔC) 500 nM; read-out: Pore Inhibition IC50
Parameter: IC50 (µM)
One number for each entry, in µM.

Quick one: IC50 of CCCCCC[C@H]1C(=O)O[C@H](C)[C@H](NC(=O)c2cccc(NC=O)c2O)C(=O)O[C@@H](C)[C@@H]1OC(=O)CC(C)C [antimycin A1] ?
4.1

* * *

Experiment: Stability in plasma
Format: in vitro ADME, mouse
Conditions: −80° C., absence of NaF/EDTA
Parameter: amounts remaining after 4 weeks (%)
Answers are plain numbers, in %.

Examples from the recorded data:
{"columns": ["Compound", "Unit abbrev", "amounts remaining after 4 weeks"],
 "data": [
  ["CCCCCC[C@H]1C(=O)O[C@H](C)[C@H](NC(=O)c2cccc(NC=O)c2OC)C(=O)O[C@@H](C)[C@@H]1OC(=O)CCC [2-OMeA2, 2-methoxy antimycin A2]", "%", 63],
  ["CC[C@H]1C(=O)O[C@H](C)[C@H](NC(=O)c2cccc(NC=O)c2OC)C(=O)O[C@@H](C)[C@@H]1OC(=O)CC(C)C [2-OMeA5, 2-OMe antimycin A5]", "%", 27],
  ["CCCC[C@H]1C(=O)OC(C)[C@H](NC(=O)c2cccc(NC=O)c2OC)C(=O)O[C@@H](C)C1OC(=O)CC(C)C (stereo partly shown) [2-OMeA3, Antimycin A3 methyl ether]", "%", 45]
]}

Param item = CCCCCC[C@H]1C(=O)O[C@H](C)[C@H](NC(=O)c2cccc(NC=O)c2OC)C(=O)O[C@@H](C)[C@@H]1OC(=O)CC(C)C [2-OMeA1, 2-methoxy antimycin A1] ; retrieve measured amounts remaining after 4 weeks.
78

* * *

Experiment: S9 metabolism
Assay type: in vitro ADME
Conditions: male, dog, hepatic S9 fraction; 500 ng/ml, 37° C., pH 7.4
Parameter: half-life at 500 ng/ml

Recorded half-life at 500 ng/ml of CCCC[C@H]1C(=O)OC(C)[C@H](NC(=O)c2cccc(NC=O)c2OC)C(=O)O[C@@H](C)C1OC(=O)CC(C)C (stereo partly shown) [2-OMeA3, Antimycin A3 methyl ether] , please.
> 5 min

* * *

Molecular target: UniProtKB Q07817
Parameter: pKd
Numbers only, as −log10 of the molar value.

Find the measured pKd: item CCCCCC[C@H]1C(=O)O[C@H](C)[C@H](NC(=O)c2cccc(NC=O)c2O)C(=O)O[C@@H](C)[C@@H]1OC(=O)CC(C)C [antimycin A1] , target or system UniProtKB Q07817.
5.63

* * *

Assay: Binding to plasma proteins (ultrafiltration)
Assay type: in vitro ADME, dog
Settings: dog, plasma, presence of NaF+EDTA, read-out: Protein binding, Dog
Parameter: fraction unbound at 20 min, 1000 ng/ml

// fraction unbound at 20 min, 1000 ng/ml lookup, key: CCCC[C@H]1C(=O)OC(C)[C@H](NC(=O)c2cccc(NC=O)c2OC)C(=O)O[C@@H](C)C1OC(=O)CC(C)C (stereo partly shown) [2-OMeA3, Antimycin A3 methyl ether]
< 0.01

* * *

Experiment: Stability in plasma
Assay type: in vitro ADME, mouse
Conditions: -80° C., presence of NaF/EDTA
Answer each item with its documented amounts remaining after 4 weeks.
Answers are plain numbers, in %.

// input: 2 molecules below; output: amounts remaining after 4 weeks for each
1. CC[C@H]1C(=O)O[C@H](C)[C@H](NC(=O)c2cccc(NC=O)c2OC)C(=O)O[C@@H](C)[C@@H]1OC(=O)CC(C)C [2-OMeA5, 2-OMe antimycin A5]
2. CCCCCC[C@H]1C(=O)O[C@H](C)[C@H](NC(=O)c2cccc(NC=O)c2OC)C(=O)O[C@@H](C)[C@@H]1OC(=O)CC(C)C [2-OMeA1, 2-methoxy antimycin A1]

1. 63
2. 96

Give measured amounts remaining after 4 weeks for every item shown.
1. CCCCCC[C@H]1C(=O)O[C@H](C)[C@H](NC(=O)c2cccc(NC=O)c2OC)C(=O)O[C@@H](C)[C@@H]1OC(=O)CCC [2-OMeA2, 2-methoxy antimycin A2]
2. CCCC[C@H]1C(=O)OC(C)[C@H](NC(=O)c2cccc(NC=O)c2OC)C(=O)O[C@@H](C)C1OC(=O)CC(C)C (stereo partly shown) [2-OMeA3, Antimycin A3 methyl ether]

[77, 90]
